assayTarget: mPGES-1 in A549 cells (Homo sapiens (Human), UniProt O14684)
Sequence (O14684 whole entry): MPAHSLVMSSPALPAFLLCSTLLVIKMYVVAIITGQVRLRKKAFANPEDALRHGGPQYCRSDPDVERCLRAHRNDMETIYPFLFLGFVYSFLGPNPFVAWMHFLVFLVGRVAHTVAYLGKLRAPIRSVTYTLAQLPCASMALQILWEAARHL
protocolDetails: A549 cell-based assay (PGE2 formation, 50% human serum)
assayConditions: IL-1β 5 ng/ml, 10 nM arachidonic acid, 20-24 h, read-out: mPGES-1 inhibitory effect IC50 in the cell assay
List of IC50 values.

molecule	measurementUnits	reportedRelation	IC50
Cn1c(Nc2c(Cl)ccc(CNC(=O)C(C)(C)F)c2Cl)nc2cc(C(=O)Nc3ccc(F)c(Cl)c3)c(N3CCC(F)(F)C3)cc21	nM	<	1
Cn1c(Nc2c(Cl)ccc(CNC(=O)C(C)(C)C)c2Cl)nc2cc(C(=O)Nc3ccc(OC(F)(F)F)cc3)c(N3CCC(C(F)(F)F)CC3)cc21	nM	=	1
Cn1c(Nc2c(Cl)ccc(CNC(=O)c3cnc(N)s3)c2Cl)nc2cc(C(=O)N[C@H]3CC[C@H](C(F)(F)F)CC3)c(N3CC4CC4C3)cc21 (stereo partly shown)	nM	=	98
Cn1c(Nc2c(Cl)ccc(CNC(=O)C(C)(C)O)c2Cl)nc2cc(C(=O)N[C@H]3CC[C@H](C(F)(F)F)CC3)c(N3CC4CC4C3)cc21 (stereo partly shown)	nM	=	9
Cn1c(Nc2c(Cl)ccc(CNC(=O)C(C)(C)F)c2Cl)nc2cc(C(=O)NCCC(F)(F)F)c(N3CCC(O)CC3)cc21	nM	=	20
CN(c1ccc(F)c(Cl)c1)c1cc2c(cc1C(=O)NCC(F)(F)F)nc(Nc1c(Cl)ccc(CNC(=O)C(C)(C)C)c1Cl)n2C	nM	=	33
Cn1c(Nc2c(Cl)ccc(CNC(=O)[C@@](C)(O)C(F)(F)F)c2Cl)nc2cc(C(=O)Nc3ccc(F)c(Cl)c3)c(N3CC[C@@H](F)C3)cc21	nM	=	3
Cn1c(Nc2c(Cl)ccc(CNC(=O)C(C)(C)C(F)(F)F)c2Cl)nc2cc(C(=O)N[C@H]3CC[C@@H](C(F)(F)F)CC3)c(N3CCC(C(F)(F)F)CC3)cc21	nM	=	1
Cc1c(N2CC3CC3C2)c(C(=O)N[C@H]2CC[C@H](C(F)(F)F)CC2)cc2nc(Nc3c(Cl)ccc(CNC(=O)C(C)(C)C)c3Cl)n(C)c12 (stereo partly shown)	nM	=	1
CN(CCC(F)(F)F)c1cc2c(cc1C(=O)NCC(F)(F)F)nc(Nc1c(Cl)ccc(CNC(=O)C(C)(C)C)c1Cl)n2C	nM	=	1
Cn1c(Nc2c(Cl)ccc(CNC(=O)[C@@](C)(O)C(F)(F)F)c2Cl)nc2cc(C(=O)N[C@H]3CC[C@H](C(F)(F)F)CC3)c(N3CC4CC4C3)cc21 (stereo partly shown) [Example 192]	nM	=	1
Cn1c(Nc2c(Cl)ccc(CNC(=O)C(C)(C)C)c2Cl)nc2cc(C(=O)N[C@H]3CC[C@H](C(F)(F)F)CC3)c(N3CC4CCC4C3)cc21 (stereo partly shown)	nM	=	1
COc1cccc(C(=O)NCc2ccc(Cl)c(Nc3nc4cc(C(=O)N[C@H]5CC[C@H](C(F)(F)F)CC5)c(N5CC6CC6C5)cc4n3C)c2Cl)n1 (stereo partly shown)	nM	=	49

====

assayTarget: mPGES-1 in A549 cells (Homo sapiens (Human), UniProt O14684)
protocolDetails: A549 cell-based assay (PGE2 formation, 50% human serum)
assayConditions: IL-1β 5 ng/ml, 10 nM arachidonic acid, 20-24 h, read-out: mPGES-1 inhibitory effect IC50 in the cell assay
Procedure: Although the enzymatic assay is a high throughput assay the disadvantage is that it uses a recombinant protein which is not in its natural environment. Accordingly a cellular assay was established in which a cell line of human origin (A549) expressing the mPGES-1 protein was used. […] Concentrations of PGE2 in the cell free medium (10 μl) were measured using a commercially available HTRF kit from Cisbio (as described above). […]
pIC50: −log10 of the molar value.
endpoint: pIC50

compound	endpoint	reportedRelation	resultNumber
Cc1nc(C(=O)NCc2ccc(Cl)c(Nc3nc4cc(C(=O)N[C@H]5CC[C@H](C(F)(F)F)CC5)c(N5CC6CC6C5)cc4n3C)c2Cl)cs1 (stereo partly drawn) [Example 228]	pIC50	<	7.00
Cn1c(Nc2c(Cl)ccc(CNC(=O)C(C)(C)C)c2Cl)nc2cc(C(=O)Nc3ccc(OC(F)(F)F)cc3)c(N3CCOCC3)cc21 [Example 141]	pIC50	=	9.00
Cn1c(Nc2c(Cl)ccc(CNC(=O)C(C)(C)C)c2Cl)nc2cc(C(=O)NC3(c4ccc(F)cc4)CC3)c(N3CCC(F)(F)C3)cc21 [Example 37]	pIC50	=	8.52
Cn1c(Nc2c(Cl)ccc(CNC(=O)c3cc(C#N)ccn3)c2Cl)nc2cc(C(=O)N[C@H]3CC[C@H](C(F)(F)F)CC3)c(N3CC4CC4C3)cc21 (stereo partly drawn) [Example 209]	pIC50	=	8.19
CC(C)(O)Cn1c(Nc2c(Cl)ccc(CNC(=O)C(C)(C)C)c2Cl)nc2cc(C(=O)N[C@H]3CC[C@H](C(F)(F)F)CC3)c(N3CCC(C(F)(F)F)CC3)cc21 [Example 165]	pIC50	=	8.52
Cn1c(Nc2c(Cl)ccc(CNC(=O)[C@@](C)(O)C(F)(F)F)c2Cl)nc2cc(C(=O)NC3CC(F)(F)C3)c(N3CCC(C(F)(F)F)CC3)cc21 [Example 258]	pIC50	=	8.40

====

assayTarget: recombinant human mPGES-1 (Homo sapiens (Human))
protocolDetails: mPGES-1 enzyme assay (HTRF detection of PGE2)
Assay type: biochemical
assayConditions: recombinant human mPGES-1 microsomes, PGH2 2 μM, 60 seconds; read-out: mPGES-1 inhibitory effect IC50 in the enzyme assay
pIC50: −log10 of the molar value.
List of pIC50 values.

compound	pIC50
Cn1c(Nc2c(Cl)ccc(CNC(=O)C(C)(C)F)c2Cl)nc2cc(C(=O)Nc3ccc(F)c(Cl)c3)c(N3CCC(C(F)(F)F)CC3)cc21	8.70
Cn1c(Nc2c(Cl)ccc(CNC(=O)C(C)(C)C)c2Cl)nc2cc(C(=O)Nc3ccc(F)c(Cl)c3)c(NC3CC(F)(F)C3)cc21	8.40
Cn1c(Nc2c(Cl)ccc(CNC(=O)C(C)(C)C)c2Cl)nc2cc(C(=O)N[C@H]3CC[C@H](C(F)(F)F)CC3)c(N3CCNC(C(F)(F)F)C3)cc21 (stereo partly drawn)	8.70

====

assayTarget: mPGES-1 in A549 cells (Homo sapiens (Human), UniProt O14684)
protocolDetails: A549 cell-based assay (PGE2 formation, 50% human serum)
assayConditions: IL-1β 5 ng/ml, 10 nM arachidonic acid, 20-24 h, read-out: mPGES-1 inhibitory effect IC50 in the cell assay

molecule	reportedRelation	IC50, nM
CC(C)(F)C(=O)NCc1ccc(Cl)c(Nc2nc3cc(C(=O)N[C@H]4CC[C@H](C(F)(F)F)CC4)c(N4CCC(O)(C(F)(F)F)CC4)cc3n2CC(F)F)c1Cl	=	1
Cn1c(Nc2c(Cl)ccc(CNC(=O)C(C)(C)C)c2Cl)nc2cc(C(=O)N[C@H]3CC[C@@H](C(F)(F)F)CC3)c(N3CC4CC4C3)cc21 (stereo partly drawn) [Example 155]	=	6
Cn1c(Nc2c(Cl)ccc(CNC(=O)C(C)(C)C)c2Cl)nc2cc(C(=O)NCCC(F)(F)F)c(N3CC4CC4C3)cc21 (stereo not drawn)	=	5
Cn1c(Nc2c(Cl)ccc(CNC(=O)C(C)(C)C)c2Cl)nc2cc(C(=O)NC3(c4ccc(F)cc4)CC3)c(N3CCC(C(F)(F)F)CC3)cc21	=	1
CC(C)(C)C(=O)NCc1ccc(Cl)c(Nc2nc3cc(C(=O)Nc4ccc(OC(F)(F)F)cc4)c(N4CCC(C(F)(F)F)CC4)cc3n2CCC(N)=O)c1Cl	=	5
Cn1c(Nc2c(Cl)ccc(CNC(=O)C(C)(C)C)c2Cl)nc2cc(C(=O)NCCC(F)(F)F)c(N3CCC(C(F)(F)F)CC3)cc21	<	1
CC(C)(C)C(=O)NCc1ccc(Cl)c(Nc2nc3cc(C(=O)NCC(F)(F)C(F)(F)F)c(N4CCOCC4)cc3n2CC(F)F)c1Cl	=	4
Cn1c(Nc2c(Cl)ccc(CNC(=O)C(C)(C)C)c2Cl)nc2cc(C(=O)Nc3ccc(OC(F)(F)F)cc3)c(N3CC[C@@H](F)C3)cc21	<	1
CNc1cc(C(=O)NCc2ccc(Cl)c(Nc3nc4cc(C(=O)N[C@H]5CC[C@H](C(F)(F)F)CC5)c(N5CC6CC6C5)cc4n3C)c2Cl)ccn1 (stereo partly drawn)	=	46
Cc1nc(C(F)(F)F)c(CNC(=O)c2cc3nc(Nc4c(Cl)ccc(CNC(=O)C(C)(C)C)c4Cl)n(C)c3cc2N2CCC(C(F)(F)F)CC2)s1	=	4
CN(c1cc2c(cc1C(=O)NCC(F)(F)F)nc(Nc1c(Cl)ccc(CNC(=O)C(C)(C)C)c1Cl)n2C)C1CCCC1	=	2
CC(C)(C)C(=O)NCc1ccc(Cl)c(Nc2nc3cc(C(=O)Nc4ccc(OC(F)(F)F)cc4)c(N4CC[C@@H](F)C4)cc3n2CC(F)F)c1Cl	=	2
